Below, each entry is listed with its recorded Diving.
Tested on: Male Sprague-Dawley rats
TEST SUMMARY: Rat Forced Swim Test (FST)
Format: in vivo
PARTICULARS: 10 mg/kg p.o., single administration, 1 hr. before test
QUANTITY MEASURED: Diving

[[record]]
chemical_structure = "O=C1C(=Nc2cc(Cl)cc(Cl)c2)c2ccccc2N1c1ccccc1"
system_under_test = "Male Sprague-Dawley rats"
measured_result = "0.4 ± 0.2"

[[record]]
chemical_structure = "Cc1ccc(Nc2cc(N3CCCCC3)nc(N3CCN(c4ncccc4C(F)(F)F)CC3)n2)cc1"
system_under_test = "Male Sprague-Dawley rats"
measured_result = "0.4 ± 0.3"

[[record]]
chemical_structure = "Cc1ccc(Nc2cc(N3CCCCC3)nc(N(C)CCc3ccccc3)n2)cc1"
system_under_test = "Male Sprague-Dawley rats"
measured_result = "0.4 ± 0.3"


* * *

Below, each entry is listed alongside its reported selectivity ratio r5HT Uptk.
SYSTEM UNDER TEST: UniProt:P31652
Sequence (P31652 whole entry): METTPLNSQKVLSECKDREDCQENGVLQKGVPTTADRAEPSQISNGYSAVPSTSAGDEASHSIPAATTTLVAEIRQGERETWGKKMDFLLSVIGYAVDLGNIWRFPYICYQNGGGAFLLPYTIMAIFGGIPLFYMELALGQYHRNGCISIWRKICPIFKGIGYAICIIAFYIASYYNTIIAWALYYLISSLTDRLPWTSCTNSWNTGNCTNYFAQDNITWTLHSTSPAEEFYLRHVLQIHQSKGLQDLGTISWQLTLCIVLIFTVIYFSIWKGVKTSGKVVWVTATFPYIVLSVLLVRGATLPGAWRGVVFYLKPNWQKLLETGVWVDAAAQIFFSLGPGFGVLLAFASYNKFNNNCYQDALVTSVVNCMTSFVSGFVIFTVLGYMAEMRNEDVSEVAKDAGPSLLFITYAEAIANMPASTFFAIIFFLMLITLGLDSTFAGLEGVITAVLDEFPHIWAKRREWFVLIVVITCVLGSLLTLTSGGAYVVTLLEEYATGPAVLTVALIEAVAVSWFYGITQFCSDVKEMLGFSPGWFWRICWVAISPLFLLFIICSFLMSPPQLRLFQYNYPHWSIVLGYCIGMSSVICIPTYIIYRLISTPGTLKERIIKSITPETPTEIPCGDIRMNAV
TEST SUMMARY: Binding at native 5HT transporter
PARTICULARS: Table 8; Ki r5HT Uptk divided by Ki hGAL3
QUANTITY MEASURED: selectivity ratio r5HT Uptk

[[record]]
chemical_structure = "O=C1C(=Nc2ccc(C(F)(F)F)cc2)c2ccccc2N1c1ccccc1"
measured_result = ">100"

[[record]]
chemical_structure = "O=C1C(=Nc2cccc(Cl)c2)c2ccccc2N1c1ccccc1"
measured_result = ">100"

[[record]]
chemical_structure = "COc1cccc(Nc2cc(N3CCCCC3)nc(N(C)CCc3c[nH]c4ccccc34)n2)c1"
measured_result = 8


* * *

SYSTEM UNDER TEST: human GAL3 receptor (Homo sapiens)
Construct: expressed in transfected cells
TEST SUMMARY: Radioligand binding at cloned human GAL3 receptor
PARTICULARS: pyrimidines, cloned human receptor; read-out: Ki GalR3
QUANTITY MEASURED: Ki (nM)

[[record]]
chemical_structure = "Cc1ccc(Nc2cc(N(C)C)nc(N3CCN(Cc4ccsc4)CC3)n2)cc1"
system_under_test = "human GAL3 receptor (Homo sapiens)"
quantity_measured = "Ki"
measured_result = 331

[[record]]
chemical_structure = "CN(C)c1cc(Nc2ccc(C3CCCCC3)cc2)nc(N2CCN(c3cnccn3)CC2)n1"
system_under_test = "human GAL3 receptor (Homo sapiens)"
quantity_measured = "Ki"
measured_result = 26

[[record]]
chemical_structure = "COc1ccc(Cl)cc1Nc1cc(N(C)C)nc(N2CCN(c3ccccn3)CC2)n1"
system_under_test = "human GAL3 receptor (Homo sapiens)"
quantity_measured = "Ki"
measured_result = 708

[[record]]
chemical_structure = "CN(C)c1cc(Nc2ccc3c(c2)OCCO3)nc(N2CCN(c3ccccn3)CC2)n1"
system_under_test = "human GAL3 receptor (Homo sapiens)"
quantity_measured = "Ki"
measured_result = 540

[[record]]
chemical_structure = "COCCN(CCOC)c1nc(Nc2ccc(C)cc2)cc(N2CCCCC2)n1"
system_under_test = "human GAL3 receptor (Homo sapiens)"
quantity_measured = "Ki"
measured_result = 505

[[record]]
chemical_structure = "CN(C)c1cc(Nc2cccc(OCc3ccccc3)c2)nc(N2CCN(c3cccc(Br)c3)CC2)n1"
system_under_test = "human GAL3 receptor (Homo sapiens)"
quantity_measured = "Ki"
measured_result = 52


* * *

SYSTEM UNDER TEST: human α2B adrenoceptor (Homo sapiens)
Construct: expressed in transfected cells
Sequence (P18089 whole entry): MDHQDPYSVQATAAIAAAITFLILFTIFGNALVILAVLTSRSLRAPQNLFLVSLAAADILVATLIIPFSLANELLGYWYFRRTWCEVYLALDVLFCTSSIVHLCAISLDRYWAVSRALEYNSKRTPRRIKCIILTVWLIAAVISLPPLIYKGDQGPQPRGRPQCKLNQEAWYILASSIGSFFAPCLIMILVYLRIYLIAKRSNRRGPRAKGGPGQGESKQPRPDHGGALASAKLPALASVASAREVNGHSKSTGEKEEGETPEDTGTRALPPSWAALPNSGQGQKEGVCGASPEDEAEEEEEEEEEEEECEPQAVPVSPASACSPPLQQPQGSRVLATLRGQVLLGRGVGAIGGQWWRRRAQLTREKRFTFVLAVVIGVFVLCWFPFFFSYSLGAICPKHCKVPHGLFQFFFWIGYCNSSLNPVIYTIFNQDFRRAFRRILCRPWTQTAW
TEST SUMMARY: Radioligand binding, α2B adrenergic receptor
PARTICULARS: Table 9; read-out: hα2B Ki
QUANTITY MEASURED: Ki

[[record]]
chemical_structure = "O=C1C(=Nc2ccc(Br)cc2)c2ccccc2N1c1ccccc1"
measured_result = "> 50 µM"

[[record]]
chemical_structure = "CN(C)c1cc(Nc2ccc(Cl)c(Cl)c2)nc(Nc2ccccc2)n1"
measured_result = "> 50 µM"

[[record]]
chemical_structure = "O=C1C(=Nc2ccc(Cl)cc2)c2ccccc2N1c1ccccc1"
measured_result = "> 50 µM"

[[record]]
chemical_structure = "O=C1C(=Nc2ccc(C(F)(F)F)cc2)c2ccccc2N1c1ccccc1"
measured_result = "> 50 µM"


* * *

SYSTEM UNDER TEST: human 5HT1E (Homo sapiens, UniProt P28566)
Construct: expressed in transfected cells
Sequence (P28566 whole entry): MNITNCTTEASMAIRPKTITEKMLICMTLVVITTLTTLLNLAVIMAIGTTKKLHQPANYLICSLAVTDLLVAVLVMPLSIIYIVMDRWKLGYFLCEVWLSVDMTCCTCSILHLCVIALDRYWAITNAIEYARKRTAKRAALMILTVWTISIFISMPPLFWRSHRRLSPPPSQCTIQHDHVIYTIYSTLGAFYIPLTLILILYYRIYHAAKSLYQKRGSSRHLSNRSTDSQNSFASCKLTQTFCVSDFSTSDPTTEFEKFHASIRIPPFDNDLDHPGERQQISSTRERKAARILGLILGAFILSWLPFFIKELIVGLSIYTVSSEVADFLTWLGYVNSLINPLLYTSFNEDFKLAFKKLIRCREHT
TEST SUMMARY: Radioligand binding, 5HT1E receptor ([3H]-serotonin)
PARTICULARS: Table 7; read-out: h5HT1E Ki
QUANTITY MEASURED: Ki (µM)

[[record]]
chemical_structure = "Cc1ccc(Nc2cc(N3CCCCC3)nc(N(C)CCc3c[nH]c4ccccc34)n2)cc1"
system_under_test = "human 5HT1E (Homo sapiens, UniProt P28566)"
measured_result = 9.17

[[record]]
chemical_structure = "Cc1ccc(Nc2cc(N3CCCCC3)nc(N(C)CCc3ccccc3)n2)cc1"
system_under_test = "human 5HT1E (Homo sapiens, UniProt P28566)"
measured_result = 13.2

[[record]]
chemical_structure = "CN(CCc1c[nH]c2ccccc12)c1nc(Nc2ccc(F)c(F)c2)cc(N2CCCCC2)n1"
system_under_test = "human 5HT1E (Homo sapiens, UniProt P28566)"
measured_result = 11


* * *

Listed molecules paired with reported pKi
SYSTEM UNDER TEST: human GAL3 receptor (Homo sapiens, UniProt O60755)
Construct: expressed in transfected cells
Sequence (O60755 1-368): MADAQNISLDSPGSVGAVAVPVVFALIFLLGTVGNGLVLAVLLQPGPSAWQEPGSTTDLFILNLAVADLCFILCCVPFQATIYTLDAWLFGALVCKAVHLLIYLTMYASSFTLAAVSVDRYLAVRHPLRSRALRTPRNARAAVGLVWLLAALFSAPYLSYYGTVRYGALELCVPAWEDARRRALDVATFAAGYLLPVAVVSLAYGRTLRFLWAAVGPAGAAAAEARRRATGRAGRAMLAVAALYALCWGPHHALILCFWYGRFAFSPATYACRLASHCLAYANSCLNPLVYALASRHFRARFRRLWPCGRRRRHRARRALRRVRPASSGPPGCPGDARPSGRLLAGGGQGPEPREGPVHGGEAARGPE
TEST SUMMARY: Radioligand binding at cloned human GAL3 receptor
PARTICULARS: indolones, cloned human receptor; read-out: Ki GalR3
pKi: −log10 of the molar value.
QUANTITY MEASURED: pKi

[[record]]
molecule = "O=C1/C(=N\\c2ccc3ccccc3c2)c2ccccc2N1c1ccsc1 [Example 260]"
system_under_test = "human GAL3 receptor (Homo sapiens, UniProt O60755)"
quantity_measured = "pKi"
measured_result = 7.22

[[record]]
molecule = "O=C1C(=Nc2cccc(C(F)(F)F)c2)c2ccccc2N1c1ccsc1 (mixture of isomers) [Example 109]"
system_under_test = "human GAL3 receptor (Homo sapiens, UniProt O60755)"
quantity_measured = "pKi"
measured_result = 6.99

[[record]]
molecule = "CCOC(=O)c1cccc(/N=C2\\C(=O)N(c3ccsc3)c3ccccc32)c1 [Example 266]"
system_under_test = "human GAL3 receptor (Homo sapiens, UniProt O60755)"
quantity_measured = "pKi"
measured_result = 6.63

[[record]]
molecule = "O=C1/C(=N\\c2ccc(I)cc2)c2ccccc2N1c1ccsc1 [Example 262]"
system_under_test = "human GAL3 receptor (Homo sapiens, UniProt O60755)"
quantity_measured = "pKi"
measured_result = 7.34

[[record]]
molecule = "Cc1cccc(/N=C2\\C(=O)N(c3ccsc3)c3ccccc32)c1 [Example 271]"
system_under_test = "human GAL3 receptor (Homo sapiens, UniProt O60755)"
quantity_measured = "pKi"
measured_result = 6.94

[[record]]
molecule = "O=C1/C(=N\\c2ccc(-c3ccccc3)cc2)c2ccccc2N1c1ccsc1 [Example 265]"
system_under_test = "human GAL3 receptor (Homo sapiens, UniProt O60755)"
quantity_measured = "pKi"
measured_result = 7.10


* * *

SYSTEM UNDER TEST: human GAL3 receptor (Homo sapiens, UniProt O60755)
Construct: expressed in transfected cells
TEST SUMMARY: Radioligand binding at cloned human GAL3 receptor
PARTICULARS: pyrimidines, cloned human receptor; read-out: Ki GalR3
Measured Ki, listed per entry.
QUANTITY MEASURED: Ki

[[record]]
compound = "Cc1cc(Nc2cc(N(C)C)nc(Nc3ccccc3)n2)ccc1Cl"
measured_result = "0.753 µM"

[[record]]
compound = "Cc1ccc(Nc2cc(N3CCCCC3)nc(N(C)C3CCCCC3)n2)cc1"
measured_result = "0.035 µM"

[[record]]
compound = "CN(C)c1cc(Nc2cc(F)ccc2Cl)nc(N2CCN(c3ccccn3)CC2)n1"
measured_result = "0.847 µM"

[[record]]
compound = "Cc1ccc(Nc2cc(N(C)C)nc(NCCCc3ccccc3)n2)cc1"
measured_result = "0.042 µM"

[[record]]
compound = "CCC(C)c1ccc(Nc2cc(N(C)C)nc(N3CCN(c4ccccn4)CC3)n2)cc1 (centres unmarked)"
measured_result = "0.058 µM"

